Test: Components of the Cytosolic LPS Sensing Pathway: Gene Identification via Genome-wide siRNA Screen;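 note: robust z of the log signal after scaling to non-targeting control siRNA wells of the plate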
Settings: RAW264.7 macrophages, IL-1a HTRF, actives lie on both sides, screened at 100 nM (by protocol), cells primed 5 h with Pam3CSK4 first
The campaign covered roughly 53,000 sequences. About 3,700 (7%) were called active.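 Rule for the calls: active = gene knockdowns whose robust z-score for IL-1 alpha signal is at least 2 or at most -2, so actives lie on both sides; inactive = the rest.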 This excerpt belongs to a sample that is enriched for actives.
Outcome codes: active, inactive

residues	answer.label
GGGCAAGACUUAAUUUUGGTT against Dppa1	inactive
GGCAAAUGGAAAAUUCUGCTT against Rlim	inactive
GCUGGAGUGUCAGUCAUAUTT against Reg4	active
CCAGGACCUUAUCAGGUUUTT against Idh2	active
GGAAAUGCCAUAGUCCUAUTT against Mrgprb5	active
GGACAUAAAAGUGUCUCGATT against Cldn13	inactive
CCCUCCACAGAUGAACACCTT against Lgals4	active
GGAAAAACUACCAAGAGGATT against Pigp	active
GGAGAAGAGCAGAAUAUGCTT against Baz1a	inactive
GGCUUACCUGGUCUACUCCTT against Wnt8b	inactive
GGCAGAAUGGGAAAUGUAUTT against Htr7	inactive
GGAUUUUGGCCAAAUUGGUTT against Slc25a30	active

* * *

Experiment: Components of the Cytosolic LPS Sensing Pathway: Gene Identification via Genome-wide siRNA Screen;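 note: robust z of the log signal after scaling to non-targeting control siRNA wells of the plate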
Conditions: RAW264.7 macrophages, IL-1a HTRF, actives lie on both sides, screened at 100 nM (by protocol), cells primed 5 h with Pam3CSK4 first
The whole screen tested about 53,000 sequences, of which about 3,700 (7%) were called active. The entries come from a sample that favours actives as a whole.

residues	z-score
GGUGCUGACUCCGACUAAATT against Nhsl1	1.2 (inactive)
GGAAAAUGGAAUCUUCGGUTT against Pus10	-1.4 (inactive)
GGCACAUAUGAGGACUACCTT against Myl6b	0.786 (inactive)
GGGUCUCUUGUGGUACAUCTT against Cln3	3.41 (active)
GCCAGGGACUUGCUAUUGATT against Txlna	-0.24 (inactive)
GGCUAAUCACCAAUUUCUUTT against Derl2	-1.19 (inactive)
GGAUAAGUGGUCUGCACUATT against Ube2c	-0.412 (inactive)
CGGACGAUUCGUGUCAAUUTT against Ppie	0.619 (inactive)
GCUCUCGUAGACUGCUAUATT against Ppp1r14c	2.13 (active)
GGCAGCUGCUGACUUGAUGTT against Gng2	0.133 (inactive)
GGAACUAGUCUGGUGAACUTT against Apoa2	-1.35 (inactive)
GCAAGAAGGUUAUUCUAUATT against Atxn3	0.399 (inactive)
GGCGGUUUCACCUAUACAATT against Rspo4	0.821 (inactive)
GCCAAUGACCCAAAUUCUATT against Ppip5k1	0.812 (inactive)
GGCAGAUACUUCUCUGGAGTT against Sdc4	-0.498 (inactive)
GGGCAAUUUGUUCGACCCATT against Abca2	-0.14 (inactive)
GCCUACAUUCACUCACUCCTT against Olfr1061	-0.016 (inactive)
CCUGAAUUACAGGGACCAGTT against Znrd1	3.49 (active)
GCUUUACGAUACUCCAUAUTT against Shd	-0.506 (inactive)
GGGAAAAUAUCAGCUCAAUTT against D930048N14Rik	-2.63 (active)
CCAUCUUGGAGAUCCUGAUTT against Kat5	-2.46 (active)
GGCUGGAACCCUAAUUUCUTT against Tpo	1.32 (inactive)
CGGUUGAUGGAAAAAUACATT against Ppef2	2.43 (active)
GGGUUACAAUAACUGGACATT against Ggcx	2.32 (active)
CCAACGAAGCCAAUAAAUGTT against Pmis2	-2.12 (active)
CCUCAACUGGUUCCCUAACTT against Spatc1	-1.73 (inactive)
GCUUGCCUGACCUGAAACATT against Apool	-2.38 (active)
GCAGUUGAUGAUAAUGUGATT against Pot1b	-0.0269 (inactive)
GGAUAGUCAGAAAUGGAAATT against Chmp4c	-0.43 (inactive)
GGACUUUGAGAAAGCAUUCTT against Pck1	-2.03 (active)
GCCAUCCUUGUGCUAAGAGTT against Ifna4	-0.604 (inactive)
GGCCUCCAAAUGAACAGCATT against Trmt61a	-0.365 (inactive)
GGUGGAAAAGUGAAAAAGGTT against Ddx18	0.158 (inactive)
GGCGGACGUGAAGAACUUGTT against Letmd1	1.28 (inactive)
CCCACUACUGUAAGACAUGTT against Trim46	0.614 (inactive)
GGAGAAGUCUUCAUUUGAATT against Tubgcp2	-0.331 (inactive)
GGCCAGAAUAUCAUCGUCATT against Rbks	-0.163 (inactive)
GCUUUUGACACUUAUAUGATT against Ptk7	-0.299 (inactive)
GGAAUUGAAGGGUACUUAATT against Fam111a	-1.97 (inactive)
GGCACUUGAAUUUCUAAGUTT against Cbx5	0.0672 (inactive)
GGGUCAUGAAACCUACCUUTT against Hikeshi	0.182 (inactive)
GGCCUGAACUUUUUAUUGATT against Olfr533	-2.19 (active)
GGAUUGCUGUAAAAUACAATT against Cdkn2aipnl	2.16 (active)
GGGCACCUUAUACCAUAGATT against Bfar	0.345 (inactive)
GCUAAUGUGGAGGACUCACTT against Chml	-0.574 (inactive)
AGUCUUCACGUUUCAUUUATT against Olfr1195	0.32 (inactive)
CGAGAAUACCAAACUCGUGTT against Usp17ld	-0.255 (inactive)
GGGCAGUCUGAUAGAGGAUTT against Adam30	-0.632 (inactive)
CGUGUGAAGCAGUUAUGAUTT against Pbx3	1.02 (inactive)
GCAUGAGUAUUCCAAGGAGTT against Arhgef7	-2.36 (active)

* * *

Below, each entry is listed alongside its reported z-score.
Assay: Components of the Cytosolic LPS Sensing Pathway: Gene Identification via Genome-wide siRNA Screen;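 note: robust z of the log signal after scaling to non-targeting control siRNA wells of the plate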
Conditions: RAW264.7 macrophages, IL-1a HTRF, actives lie on both sides, screened at 100 nM (by protocol), cells primed 5 h with Pam3CSK4 first
Description: Non-canonical inflammasome activation by cytosolic LPS is a critical component of the host response to Gram-negative bacterial infection, however we lack a comprehensive understanding of the cellular processes that control this pathway. […] Lipofectamine RNAiMAX Transfection Reagent ([…]; Invitrogen) was added in […] serum-free, antibiotic-free media to plate wells using a Thermo Scientific Matrix WellMate and Microplate Stacker. […] The plates were read on an EnVision plate reader (PerkinElmer). […]
Hit rate of the full screen: of about 53,000 sequences, about 3,700 (7%) were called active. Many of the other results were omitted from the sample, so actives are more common in it than they were.
quantity.kind: z-score

residues	quantity.kind	reading
GGCUUGAAUCACCAACCAGTT against Sgcz	z-score	0.224
CCUGACAGCACUUUGUGGATT against Arhgef4	z-score	0.481
CCAAAAAGAGCGAUUACCCTT against Shc1	z-score	0.368
CGACUGGAAUCUAAUAACUTT against Fgf2	z-score	0.987
GGUAGGAAGCUAGAGAAAUTT against Synj2	z-score	0.139
CGCGUUUCGUGUUUCAAAATT against Mus81	z-score	-0.464
GUAUGUUGACAUUUGCCUGTT against Olfr113	z-score	-2.05
GCUACAGCUUCAAUUAAAUTT against Birc6	z-score	0.135
GCUUCGAGAGUCAACUAUGTT against Mecom	z-score	0.232
GCAGACGACAAGUUCUACATT against Tbcb	z-score	-0.666
GGCUUACUUCAUUUCAGUUTT against Zfp526	z-score	0.0808
CCAUCAAAGUCAUCGACGGTT against Birc6	z-score	-0.427
GCACUCCACUCUUCCAUCATT against Cxcl16	z-score	0.35
GGUCAAGUCAGCAUUCCUGTT against Hspbp1	z-score	-1.78
GGCAUCUCUGAGUUACAUUTT against Snu13	z-score	0.695
GGAAUAGUGGCUUCUUUUATT against Rsph3a	z-score	-0.00182
GGUAAACAUUGCUACUUUGTT against Mpdz	z-score	0.935
GGGACUUUAAAAAAGACUCTT against Olfr1366	z-score	2.1
GGCGGUGGAGGUGAUAUAUTT against Dennd6a	z-score	-2.01
AGAACGGAACCAUAGGGAATT against Cmc2	z-score	-0.897
GGCAGACUGCUGACAUAUGTT against Cd37	z-score	-2.44
AACCAGUCCUUGAAAAGAGTT against Olfr128	z-score	-1.01
GGGAGCCAAUGAAAUCAAGTT against Hmbox1	z-score	3.31
GGACACUGCAAAAGAGGAGTT against Defa4	z-score	1.37
GGAGCUAAACUCCUUGAAGTT against Slc22a4	z-score	2.07

* * *

Test: Components of the Cytosolic LPS Sensing Pathway: Gene Identification via Genome-wide siRNA Screen;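 note: robust z of the log signal after scaling to non-targeting control siRNA wells of the plate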
Details: RAW264.7 macrophages, IL-1a HTRF, actives lie on both sides, screened at 100 nM (by protocol), cells primed 5 h with Pam3CSK4 first
In all, about 53,000 sequences went through this assay and about 3,700 (7%) were called active.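 Rule for the calls: active = gene knockdowns whose robust z-score for IL-1 alpha signal is at least 2 or at most -2, so actives lie on both sides; inactive = the rest.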 The full list was thinned out, with actives kept by preference.
Outcome codes: Yes = active, No = inactive

residues	answer.label
GCCAUCUUCGGUCAACUCUTT against Olfr969	Yes
GGACAGUUCGUGUUUGGUUTT against Wdfy2	No
GCAACUAUGAACAAGAAUCTT against Grm3	No
GGAAUAGGACCUAUGUCUGTT against Nr2e1	No
GGCAACAAUAGUUCAGAAGTT against Rps6ka5	No
CGUAAACAUUUCCUUCUACTT against Dmbt1	No
GGAUGAUGAAGUCAAAUUUTT against Slc26a5	No
GGAUGAGAUCAACUUCCUCTT against Krt7	No
GGACCAGUUUAUCCAGCACTT against Mc3r	No
GCACCUCGGUCAUUUAUAUTT against Mettl14	Yes
GGUGUGUUUGCUAUUUCCATT against Olfr259	No
GCGGUGAUGAGAGAAACCATT against Zfp617	No
GCUGGGAGUAAAAUUGACUTT against Cenpj	No
CCUGUUACCCUAUAUUUUGTT against Vmn1r82	No
GGAGCUGUAUGAGAUAGAGTT against Zfp566	Yes
GCGAUGAUAAGUGCCUGGUTT against Stk31	No
GGUCUUGGAUGCAAACGAUTT against Pcdhga2	No
GGGAAAGCAUCGUAGACUCTT against Eid2	No
GCAUCUGGUAAAAGGAGCATT against Rpap1	No
GGCAUUAAUAUGUCUGACUTT against Tada1	No
GGCGGAUGAACAAAGUUGGTT against Polr1e	No
GCAUGAAUUCAAAUUGCCATT against Adgrl4	No
GGAUGGAGAGAUAAGAAAATT against Lmntd1	No
CGAUUCAAGGUAACAUAGATT against Esrrg	No
CGAAUGAAAGAAUACCGUGTT against Dnajc6	No
